Value source: patent US20130102645A1

PROCEDURE SUMMARY: rat pharmacokinetics, plasma LC-MS/MS
Assay type: in vivo
CONDITIONS: male, Sprague-Dawley, plasma, PO 20 mg/kg suspension, read-out: average AUC (0-12 hr)
RECORDED METRIC: AUC(0-t) (ng·h/mL)
Note: unit ng·h/mL is implicit; provide only the numeric part.

The reported value for CCOc1cc(C=C2S/C(=N/c3ccc(C(=O)O)cc3)N(C)C2=O)ccc1O (stereo in doubt) [AV-398] in terms of AUC(0-t) is 234

----------
Tested on: HUVEC
PROCEDURE SUMMARY: growth inhibition of HUVEC cell lines
Format: cell-based
CONDITIONS: Homo sapiens, read-out: IC50 for growth inhibition of HUVECs
pIC50: −log10 of the molar value.
RECORDED METRIC: pIC50

The reported value for CCOc1cc(C=C2S/C(=N/c3ccc(C(=O)O)cc3)N(C)C2=O)ccc1O (stereo in doubt) in terms of pIC50 is > 6.52
